# Tested on: Human Pgp/BCRP transporter
# EXPERIMENT DESCRIPTION: Human Pgp/BCRP transporter substrate assessment
# Assay type: in vitro ADME
OBSERVATION TYPE: Human Pgp/BCRP transporter substrate

CCOc1cc2ncc(C#N)c(Nc3ccc(OCc4ccccn4)c(Cl)c3)c2cc1NC(=O)/C=C/CN(C)C [Neratinib, reference compound] | Yes
Cc1cc(Nc2ncnc3ccc(NC4=NC(C)(C)CO4)cc23)ccc1Oc1ccn2ncnc2c1 [ONT380, reference compound] | Yes
COc1cc(O[C@H]2CCN(C)CC2(F)F)c2c(Nc3ccc(Oc4ccn5ncnc5c4)c(C)c3)ncnc2c1 (single isomer, unassigned) [Compound 6] | No
COc1cc(O[C@H]2CCNCC2(F)F)c2c(Nc3ccc(Oc4ccn5ncnc5c4)c(C)c3)ncnc2c1 [Compound 16] | No

====

# STUDY SYSTEM: EGFR WT (Homo sapiens, UniProt P00533)
# Construct: which expresses wild type EGFR protein; endogenous in cells
# Sequence (P00533 25-1210): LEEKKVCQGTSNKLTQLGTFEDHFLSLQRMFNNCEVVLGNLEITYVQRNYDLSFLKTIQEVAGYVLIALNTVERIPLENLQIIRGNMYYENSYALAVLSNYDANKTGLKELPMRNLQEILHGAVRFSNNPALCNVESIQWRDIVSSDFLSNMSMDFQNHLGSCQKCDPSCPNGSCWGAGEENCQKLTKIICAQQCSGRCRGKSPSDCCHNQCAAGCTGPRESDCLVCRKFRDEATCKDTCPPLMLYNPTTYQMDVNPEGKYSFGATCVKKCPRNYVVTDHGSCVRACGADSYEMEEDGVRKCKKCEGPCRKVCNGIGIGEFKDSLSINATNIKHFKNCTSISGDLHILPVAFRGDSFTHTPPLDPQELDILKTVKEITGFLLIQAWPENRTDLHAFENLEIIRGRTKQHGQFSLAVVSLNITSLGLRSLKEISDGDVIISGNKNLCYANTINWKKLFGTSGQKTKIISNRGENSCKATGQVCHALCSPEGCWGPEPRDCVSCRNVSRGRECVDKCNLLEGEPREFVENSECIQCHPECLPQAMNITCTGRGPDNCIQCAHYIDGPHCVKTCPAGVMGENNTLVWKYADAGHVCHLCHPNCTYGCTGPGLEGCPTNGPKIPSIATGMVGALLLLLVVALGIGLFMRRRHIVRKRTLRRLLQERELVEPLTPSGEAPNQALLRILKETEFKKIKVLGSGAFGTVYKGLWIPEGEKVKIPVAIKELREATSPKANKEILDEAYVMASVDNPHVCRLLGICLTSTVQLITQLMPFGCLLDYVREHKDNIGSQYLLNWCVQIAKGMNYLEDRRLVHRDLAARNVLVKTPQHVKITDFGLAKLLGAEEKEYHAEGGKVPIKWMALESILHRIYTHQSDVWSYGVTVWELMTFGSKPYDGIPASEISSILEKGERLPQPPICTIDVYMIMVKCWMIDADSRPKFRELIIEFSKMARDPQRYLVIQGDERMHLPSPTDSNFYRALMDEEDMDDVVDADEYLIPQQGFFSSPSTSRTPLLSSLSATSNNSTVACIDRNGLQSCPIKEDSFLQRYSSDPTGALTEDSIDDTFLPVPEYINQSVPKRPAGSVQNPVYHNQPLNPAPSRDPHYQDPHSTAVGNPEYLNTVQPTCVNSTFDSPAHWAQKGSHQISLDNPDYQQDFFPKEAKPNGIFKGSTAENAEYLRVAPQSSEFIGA
# EXPERIMENT DESCRIPTION: EGFR (Y1068) phosphorylation in NCI-H838 cells, MSD kit
# CONDITION NOTES: pEGFR (Y1068), 4 h then hEGF stimulation
OBSERVATION TYPE: IC50

Form field IC50, entry Cc1cc(Nc2ncnc3cccc(O[C@@H]4CCN(C)C[C@@H]4F)c23)ccc1Oc1ccn2ccnc2c1 (single isomer, unassigned) : > 3000 nM

====

# STUDY SYSTEM: pHER2 (Homo sapiens, UniProt P04626)
# Construct: pHER2 in cells expressing HER2; endogenous in cells
# Sequence (P04626 23-1255): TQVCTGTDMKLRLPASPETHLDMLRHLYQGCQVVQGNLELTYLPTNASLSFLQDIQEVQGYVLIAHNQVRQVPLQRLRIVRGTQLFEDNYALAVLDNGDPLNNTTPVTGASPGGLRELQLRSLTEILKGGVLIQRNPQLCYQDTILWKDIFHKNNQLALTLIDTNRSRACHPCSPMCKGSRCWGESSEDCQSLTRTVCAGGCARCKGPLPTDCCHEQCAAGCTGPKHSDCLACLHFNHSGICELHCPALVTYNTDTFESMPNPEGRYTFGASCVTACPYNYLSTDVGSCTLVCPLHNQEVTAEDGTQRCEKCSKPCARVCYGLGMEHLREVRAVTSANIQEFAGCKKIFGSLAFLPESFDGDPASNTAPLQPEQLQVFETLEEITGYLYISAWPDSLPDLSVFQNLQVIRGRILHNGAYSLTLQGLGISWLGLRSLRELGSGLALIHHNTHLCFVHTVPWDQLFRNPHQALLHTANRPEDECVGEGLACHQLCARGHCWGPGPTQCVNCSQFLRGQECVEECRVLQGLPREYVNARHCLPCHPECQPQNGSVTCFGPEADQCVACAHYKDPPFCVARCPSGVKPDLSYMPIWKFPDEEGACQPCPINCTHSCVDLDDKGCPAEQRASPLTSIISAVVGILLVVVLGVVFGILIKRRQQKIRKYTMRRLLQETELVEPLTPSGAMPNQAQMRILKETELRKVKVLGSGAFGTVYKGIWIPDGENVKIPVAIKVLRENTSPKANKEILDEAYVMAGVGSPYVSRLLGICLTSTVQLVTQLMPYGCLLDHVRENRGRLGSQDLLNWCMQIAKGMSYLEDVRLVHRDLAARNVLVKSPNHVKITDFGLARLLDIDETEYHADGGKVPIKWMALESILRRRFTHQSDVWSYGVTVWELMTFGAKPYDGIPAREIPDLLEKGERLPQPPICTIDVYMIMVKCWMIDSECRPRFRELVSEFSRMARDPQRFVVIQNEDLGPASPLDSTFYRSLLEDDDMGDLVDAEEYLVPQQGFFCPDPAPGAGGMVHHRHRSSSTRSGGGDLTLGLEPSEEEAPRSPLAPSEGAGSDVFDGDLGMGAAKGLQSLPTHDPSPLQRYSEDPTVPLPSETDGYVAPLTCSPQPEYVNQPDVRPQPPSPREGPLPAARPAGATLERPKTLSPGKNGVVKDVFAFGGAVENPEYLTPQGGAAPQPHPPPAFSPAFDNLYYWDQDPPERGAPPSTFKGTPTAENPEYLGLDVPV
# EXPERIMENT DESCRIPTION: pHER2 cellular activity in BT474c1 cell line
# CONDITION NOTES: BT474c1 cell line
# Text: A compound's activity of selective inhibition for HER2 wild type amplification can be evaluated with BT474 cell line (ATCC® HTB-20™). The cell line expressed phosphorylated HER2 protein and its proliferation depended on the amplified gene, which could be used for in vitro PD and anti-proliferation assays. […]
OBSERVATION TYPE: pIC50
Recall that pIC50 is obtained by taking minus log10 of the concentration measured in molar.

Bench note, pHER2 (Homo sapiens, UniProt P04626): COc1cc(O[C@H]2CCNCC2(F)F)c2c(Nc3ccc(Oc4ccn5ncnc5c4)c(C)c3)ncnc2c1 [Compound 16] , pIC50 reads 8.46

pIC50 of COc1cc(O[C@H]2CCN(C)CC2(F)F)c2c(Nc3ccc(Oc4ccn5ncnc5c4)c(C)c3)ncnc2c1 (single isomer, unassigned) [Compound 6] , assay on pHER2 (Homo sapiens, UniProt P04626), is 8.36

====

Entries and their Kp uu
# EXPERIMENT DESCRIPTION: Blood brain barrier penetration assay in rats (short oral absorption model with blood, plasma and brain binding)
# Assay type: in vivo
# CONDITION NOTES: male, Han Wistar, CSF, Table 5, rat, read-out: Kp,uu,CSF
Keep it simple and answer with nothing but the number.

COc1cc(O[C@H]2CCN(C)CC2(F)F)c2c(Nc3ccc(Oc4ccn5ncnc5c4)c(C)c3)ncnc2c1 (single isomer, unassigned) | 0.87

Please examine the following record next.
Short answer for COc1cc(O[C@H]2CCNCC2(F)F)c2c(Nc3ccc(Oc4ccn5ncnc5c4)c(C)c3)ncnc2c1 : Kp uu was 0.23

====

Entries annotated with measured IC50
# STUDY SYSTEM: wild type EGFR (Homo sapiens, UniProt P00533)
# Construct: which expresses wild type EGFR protein; endogenous in cells
# Sequence (P00533 25-1210): as the sequence (P00533 25-1210) above
# EXPERIMENT DESCRIPTION: pEGFR cellular activity in A431 cell line
Return type: number; implicit unit nM.

COc1cc(O[C@H]2CCN(C)CC2(F)F)c2c(Nc3ccc(Oc4ccn5ncnc5c4)c(C)c3)ncnc2c1 (single isomer, unassigned) [Compound 6] | 1460

Entry COc1cc(O[C@H]2CCNCC2(F)F)c2c(Nc3ccc(Oc4ccn5ncnc5c4)c(C)c3)ncnc2c1 [Compound 16] , IC50 reported as 740
